Target: T1, human LAG-3 protein with hFc tag (hLAG-3-hFc protein) (human, UniProt P18627 23-450)
T1 construct: also called immunogen 1; LAG-3 extracellular domain protein; not shown: human IgG Fc fragment (hFc) of the pCpC vector
T1 sequence: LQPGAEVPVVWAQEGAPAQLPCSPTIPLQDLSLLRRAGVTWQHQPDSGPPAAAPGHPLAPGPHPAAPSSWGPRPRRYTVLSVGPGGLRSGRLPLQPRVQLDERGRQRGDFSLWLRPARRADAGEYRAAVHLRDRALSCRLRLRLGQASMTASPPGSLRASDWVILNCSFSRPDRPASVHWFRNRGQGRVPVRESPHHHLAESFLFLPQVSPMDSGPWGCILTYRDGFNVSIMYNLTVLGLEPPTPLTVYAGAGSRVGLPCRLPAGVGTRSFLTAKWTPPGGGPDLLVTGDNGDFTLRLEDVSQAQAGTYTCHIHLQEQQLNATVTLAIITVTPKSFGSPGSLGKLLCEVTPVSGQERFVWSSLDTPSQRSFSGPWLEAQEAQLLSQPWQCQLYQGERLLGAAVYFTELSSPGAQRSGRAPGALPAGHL
Test: FACS, blocks LAG-3-hFc binding to MHC II on Raji; 22.222 nM
Procedure: The FACS reaction plate incubating the Raji cells was centrifuged to discard the supernatant. The above mixture was added as 100 μl per well to Raji cells and incubated on ice for 1-2 hours. […] The plate was washed 2-3 times by centrifugation with blocking solution (PBS, 2% fetal bovine serum), added with 100 microliters of PBS per well to suspend cells, and detected using FACS (FACS Calibur, BD) and the results were analyzed. […]

binder | reading unit | Inhibition rate (%)
409B11E12 (mouse antibody purified from hybridoma) (antibody, V domains shown, also called mAb104-409B11E12) VH: QVQLQQSGAELVRPGASVTLSCKASGYTFTDYEMHWVKQTTVHGLEWIGATDPETSYSAYNQKFKGKAILTADKSSSTAYMELRSLTSEDSAVYYCIATGWNDWGQGTSLTVSS VL: DLKMTQSPSSMYASLGERVTITCKASQDINSYLSWFQQKPGKSPKTLIYRANRLLDGVPSRFSGSGSGQDYSLTISSLEYEDMGIYYCLQYDEFPYTFGGGTKLEIK | % | 95.3
